Taken from patent US12612465B2.

- Target system: human D374Y PCSK9 (Homo sapiens, UniProt Q8NBP7, D374Y/E620G/G670E/V474I)
- Sequence (Q8NBP7 153-692 D374Y/V474I/E620G/G670E): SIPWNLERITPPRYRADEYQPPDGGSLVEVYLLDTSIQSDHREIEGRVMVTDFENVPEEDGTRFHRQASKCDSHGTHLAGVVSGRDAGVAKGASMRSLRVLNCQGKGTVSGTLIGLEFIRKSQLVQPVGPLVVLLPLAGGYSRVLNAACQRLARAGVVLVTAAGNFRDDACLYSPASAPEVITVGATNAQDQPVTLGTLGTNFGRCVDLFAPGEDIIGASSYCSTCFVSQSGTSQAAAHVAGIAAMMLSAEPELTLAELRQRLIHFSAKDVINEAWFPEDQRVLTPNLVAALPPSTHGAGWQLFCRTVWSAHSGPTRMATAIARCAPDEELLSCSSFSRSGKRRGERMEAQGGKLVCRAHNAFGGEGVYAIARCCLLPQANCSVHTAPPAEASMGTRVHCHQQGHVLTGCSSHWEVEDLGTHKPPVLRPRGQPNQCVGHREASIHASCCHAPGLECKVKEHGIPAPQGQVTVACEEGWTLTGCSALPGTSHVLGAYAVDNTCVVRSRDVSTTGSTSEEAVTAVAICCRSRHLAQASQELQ
- Method notes: Receptor ligand blocking screen / functional screening of hybridoma antibodies
- Assay type: binding

Molecule	neutralizing ability
13H1: anti-PCSK9 ABP, light/heavy variable region SEQ ID NO 28/91 (antibody, listed as Homo sapiens, V domains shown) VH: QVQLQQSGPGLVKPSQTLSLTCAISGDSVSSNSAAWNWIRQSPSRGLEWLGRTYYRSKWYKNYSVSVKSRITINPDTSKNQFSLQLNSVTPGDTAVYYCARGGPTAAFDYWGQGTLVTVSS VL: LSALTQPASVSGSPGQSITISCTGTSSDVGNYNLVSWYQQYSGKAPKLMIYEVSKRPSGVSNRFSGSKSGNTASLTISGLQAEDEADYYCCSYAGSSTLVFGGGTKLTVL	non-neutralizing
13B5: anti-PCSK9 ABP, light/heavy variable region SEQ ID NO 42/69 (antibody, listed as Homo sapiens, V domains shown) VH: EVQLLESGGGLVQPGGSLRLSCAASGFTFSSYAMSWVRQAPGKGLEWVSTISGSGGRTYYADSVKGRFTISRDNSKNTLYLQMNSLRAEDTAVYYCAKEVGSPFDYWGQGTLVTVSS VL: QSVLTQPPSVSAAPGQKVTISCSGSNSNIGNNYVSWYQQLPGTAPKLLIYDNNKRPSGIPDRFSGSNSGTSATLGITGLQTGDEADYYCGTWDSSLSAVVFGGGTKLTVL	non-neutralizing
